Measurement Target: T1, human ASGR-1 (human, UniProt P07306 1-291)
T1 construct: Stably expressed on CHO-S cells (CHO-S:huASGR-1); The method text says human or mouse ASGR-1 cells were used; also called huASGR-1; hASGR-1
T1 sequence: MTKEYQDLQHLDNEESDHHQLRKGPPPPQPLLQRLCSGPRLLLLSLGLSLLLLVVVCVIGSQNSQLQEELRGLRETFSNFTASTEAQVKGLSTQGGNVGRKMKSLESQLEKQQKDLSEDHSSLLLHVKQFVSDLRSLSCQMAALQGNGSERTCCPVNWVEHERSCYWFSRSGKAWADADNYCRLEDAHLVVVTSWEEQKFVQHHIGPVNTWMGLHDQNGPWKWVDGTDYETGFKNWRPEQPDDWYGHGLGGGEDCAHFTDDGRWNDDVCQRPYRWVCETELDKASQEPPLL
Assay Overview: FACS ligand blocking on CHO-S ASGR-1 cells; competitor biotinylated asialofetuin
Measure: IC50 (nM)

202A3 (antibody, V domains shown) VH: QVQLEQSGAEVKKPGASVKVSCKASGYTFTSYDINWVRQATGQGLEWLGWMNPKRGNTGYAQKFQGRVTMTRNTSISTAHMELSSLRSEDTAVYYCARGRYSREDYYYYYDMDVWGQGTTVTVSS VL: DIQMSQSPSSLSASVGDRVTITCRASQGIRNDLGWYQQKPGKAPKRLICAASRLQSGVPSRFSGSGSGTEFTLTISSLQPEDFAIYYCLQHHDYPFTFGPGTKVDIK    16
7E11 (antibody, V domains shown) VH: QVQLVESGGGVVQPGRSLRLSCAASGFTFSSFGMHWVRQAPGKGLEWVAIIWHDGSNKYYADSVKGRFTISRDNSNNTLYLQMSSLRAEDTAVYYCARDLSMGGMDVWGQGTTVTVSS VL: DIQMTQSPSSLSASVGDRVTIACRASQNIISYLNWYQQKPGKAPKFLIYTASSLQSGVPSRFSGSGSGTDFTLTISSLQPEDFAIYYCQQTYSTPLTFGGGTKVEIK    13
190F8 (antibody, V domains shown) VH: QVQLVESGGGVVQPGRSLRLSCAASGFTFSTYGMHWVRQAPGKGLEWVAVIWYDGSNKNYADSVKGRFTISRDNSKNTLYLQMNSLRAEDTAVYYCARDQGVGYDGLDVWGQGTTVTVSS VL: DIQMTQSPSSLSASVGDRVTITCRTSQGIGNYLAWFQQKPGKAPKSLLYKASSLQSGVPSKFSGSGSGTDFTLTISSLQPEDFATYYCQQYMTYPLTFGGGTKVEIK    34
